System: OVCAR-3 ovarian
Experiment: NCI tumour cell line growth inhibition, 48 h
The entries below come with measured log10 of TGI values attached.
A value of 2 here means TGI of 100 in µM, since values are log10.

>>> reported("COC(=O)c1c(C)cc2c(c1O)C1(O)C(=O)c3cc4c(c(O)c3C(=O)C1(OC)C(O)C2)C(=O)C=C(NC1OC(C)C(OC)C(O)C1OC)C4=O (stereo unspecified)")
-0.25
>>> reported("N#Cc1c(NC(=O)c2cccc3ccccc23)sc2c1CCCC2")
-0.97
>>> reported("CCCCCCCCCCCCSC(=NC)NC")
0.68
>>> reported("Cc1ccc(NSc2ccccc2[N+](=O)[O-])cc1")
0.87
>>> reported("Cn1ccnc1C(=O)/C=C/c1ccc(C(=O)Nc2ccccc2O)cc1")
0.80

# assay system OVCAR-3 ovarian: give log10 of TGI of COCC(=O)OC1CCn2c1nc1c2C(=O)C(C)=C(NC(C)=O)C1=N (stereo unspecified)
0.77

# assay system OVCAR-3 ovarian: give log10 of TGI of CC1CC(C)/C(=N/NC(N)=O)C(C(O)CC2CCC(=O)NC2=O)C1 (stereo unspecified)
1.68

# assay system OVCAR-3 ovarian: give log10 of TGI of `CN(C)CC(C)(C)C(/C=C/c1ccccc1)=N\Nc1ccccc1`
1.15

# assay system OVCAR-3 ovarian: give log10 of TGI of `COc1cc(C(=O)/C=C/c2c(-c3ccc(F)cc3)nc3ncccn23)cc(OC)c1OC`
0.56
